# testMethodNotes: soluble on expression in E. coli; label from the status in PepcDB or PDB records
endpoint: soluble on expression in E. coli

monomerSequence	endpoint	recordedResult
MGSDKIHHHHHHMAVFSQYFGKLNQYKNALTQKVDNYWTLSCFQDVAAINPWLVPGQGRKTGSSIVLKNDVLVELGSPEAGSCSMTLYTNSPHQITDGWITLMGSDITEYTPKKLPFGQVIMVGGEHLTEEDYYYLLQNLNVSEMIEGYMIRSTAESIWCRISKDAAKNGFNFHVLGSVLNWHIKQILPKVKAVEIVFVTTTKEDIEELNQISKEVGEIGRRIKERIWREKGVDIYKCVPGGHCGACEDKTVCDTIRKIGAGR	soluble on expression in E. coli	not soluble
MGSDKIHHHHHHMKMATTHQSSTKQDILEYLHKHEKATALELAEVLDVTPQAIRRHLKDLETEELVLYSTSVQAAGMGRPQHLYELSRQGRDRLHRTMSDRFGDASGNFAVSLLDTLAETVGHDQFKSILEKQWQRKAKEYRDRVGNGSLRERVANLVELRKAEGFMAEYHAVDVNDTFESDRFILMEHNCAISNVAESFPSICGHELEMFAAVLPDCTVERTHWIIDGEHRCGYLVQVRH	soluble on expression in E. coli	not soluble

* * *

# testMethodNotes: soluble on expression in E. coli; label from the status in PepcDB or PDB records
endpoint: soluble on expression in E. coli

monomerSequence	soluble on expression in E. coli
RLTRKEEWLREVLSSIREAIIVTNASGEIVLANPAASRLFMIEAARKRSIPVTNIEDAAMRELFERVQKRQSGIYNEELTAMTSKGKRTLKVTAVPVMRRGALFDGTVLVINDVT	not soluble
KTFAALGSGVIGSGWIARALAHGLDVVAWDPAPGAEAALRARVANAWPALRKQGLAPGAAQERLRFVASIEECVGDADFIQESAPERLDLKLDLHARISAAARPDVLIGSSTSGLLPSEFYAEASHPERCLVGHPFNPVYLLPLVEVVGGERTAAEAVRAAMRVYESLGMRPLHVRKEVPGFIADRLLEALWREALHLVNDGVATTGEIDDAIRFGAGLRWSFMGTFLTYTLAGGNAGMRHFMAQFGPALQLPWTYLPAPELTEALIDRVVEGTAEQQGARSIAELERYRDDCLLAVLGAIRETKARHGFA	not soluble
MGSDKIHHHHHHMSSIIENLQLAAQQVHLINLYQANSEVVYTGYIDRLAPDGVVVNTYDDAGLQDGAVFMRYDVIDEVEMMSEDLDNMAFRLENATTEGLNSVPQPTVALDDQRPVLTQLVTQAQTDHQVVLLVLEDNENYLEGQVQQVTDQTITFKTFDKFNFKNNGQQEIPLAAIQILEFCGNELLLESAFVKTIHTHRATIKVSEFDDVDHTLNNALNEHQLIAIRSADGSDMFFVGFINALNADSVLLNLIDMTGQFGGYTLCRRSLIESVTTQSDYLQTMRGFIELNRQYELNVQPVLNDERLFDATTDLFDSILRQAATFNNLVHITTENPMLPAMTGYPGTLTNGHFIFYNVDDDNQINHVGTMIELDQVVELSFGYMDAYLLEKRLKSTGNL	not soluble
MTKEQIQIIKDCVPILQKNGEDLTNEFYKIMFNDYPEVKPMFNMEKQISGEQPKALAMAILMAAKNIENLENMRSFVDKVAITHVNLGVKEEHYPIVGACLLKAIKNLLNPDEATLKAWEVAYGKIAKFYIDIEKKLYDK	soluble

Record soluble on expression in E. coli per entry; entries follow.
1. MTVWDRPEPPHRPVPLDRERIVAAAVALADEGGLTAVSVRKVAARLDAGPMRLYGFISTKDELFDLMVDAVYAEILPEERAGDWREALRVLAHRTRQAALRHPWLADLLGGRPALGPNGLAVAEATLAALDGLADVDTVMRAVETVSSYFTGAVRREIADLRAERATGLSKPEWQREHGPHLTRMLATGRYPALAKAVHDGTHVDAEESFATGLDWVLDAVAVRLARPPGS
2. MSLSTPAVQALSHLVRDVTMKSIVLSAFGTMPIVDERPLPVAGPQEILIRMTHASLNPIDRRIAEGFFKDRFEHRFPLTLGIDGAGVVESIGEQVSDFEVGDSVFGRFLHSYVGNGSFSEYVAISADATLLHTPLGVPPALAAALPTAATTALQAVESLGLPPGSVVLIMGATGGVGTFAVQLARAKGYQVLASASTEAAPWLAQLGVEHVFDRTQNVPERLSTGWPAGINGLIDLVNPAPAFAELVSCIAPGGTALSSIWSATADVAAARGVRAVNLEMLPNREDLRTLARQVLSGSLRVVIDKHISLEAVPAVMSQRQAGGARGKTVIDIAEGHHHHHH
3. MSLTPRFIDLHTHTTASDGSDSPADLVRKATEAGLAAVAVTDHDTVAGLDEAVAMGHETGIEVVRGCELGVRSEYGEIHILGLWLPEKPETLLDAMKELRRHRNERNERIVDNLRTLGMDITYEEVRALSGGVSVGRPHIALALLRHGYIRTPQEAFDRFIGPGAPAYAPKKVFSPAEGVRLLASCGATVAIAHPMLLRCPEEWLDDTVADLKVAGLDAIEAYHSEHSHKDERRCVDIADRHGLVLTGGSDYHGKAKPAISLGRGREGHHHHHH
4. MGSDKIHHHHHHMINAKNIRFSYPRQRSLFESLNLDLPKGSITGLLGRNGEGKTTLLKLLCGQLLRKDGNLTVLTEDPRHRSVKFLSKVFLLQEEVTCPNVSIRDYFRMITPFYPSYSPEVAQEIIIAFDLNWDMKLGKVSQGQKKKAVIALALSLRTPLLLMDEPTNGLDIPSKSAFRRLMARYITEEQTVIISTHQVRDLEQIIDRIVMMDKNAIVCNRSVAELSEQFAFRQVVPGDKPIYKEGSTMGEVGVYENTTGEETPFSMELFFNGMIAEREVFNRVLNR
5. MGSDKIHHHHHHMQNFVLTVSCKSTRGVVAALSGYLAEQGCNIADSSQFDDLDTGKFFMRTSFISEERVGLAALEEGLKPIASKFEMETALHEQSERMKVLLMVSRFGHCLNDLLYRWKIGALPIDIVGVVSNHFDYQKVVVNHDIPFHHIKVTKENKPKAEAQLMDVVEQTGAELIVLARYMQVLSDALCKKMSGKIINIHHSFLPSFKGANPYKQAYERGVKLIGATAHYVTADLDEGPIIEQDIARITHAQSAEDYVSIGRDVESQVLARAVHAHIHHRCFINGNRVVVFPPSPGSYASERMG
6. RTGAELLALTTSTGKSIAQLMWDNERAWHTEAETRTGLLKIWDVMQSCVARGCGIGNPDADGTLPGPFQVKRRAPQLYRALTGNPERALQDPLSMVDWINLYAIAVNEENAAGGRVVTAPTNGAAGIIPAVLHYYTRFTPGANEQGVIDFLMTAAAIGILYKLNASISGAEVGCQGEVGVACSMAAGALAAVLGGTPQQVENAAEIGMEHNLGLTCDPVGGMVQIPCIERNAMASVKAVNAARMALRGDGSHYVSLDSVIKTMRETGADMKTKYKETSRGGLAVN
7. MTHKGSCHCGRIAFEVDGEPGSAMACNCSICQRKGSLLWFVPREHLHLLTPDENASTYTFNKHVIRHRFCPVCGMHPYGEGTGADGKAMVAINIRCLEDIDLAAVPVTQFDGRSRLEHHHHHH

1. not soluble
2. soluble
3. not soluble
4. not soluble
5. not soluble
6. not soluble
7. soluble
